Quick reference: pIC50 of the listed items.
# assay system: human PCaR (parathyroid Calcium receptor) (Homo sapiens, UniProt P41180)
# Sequence (P41180 20-1078): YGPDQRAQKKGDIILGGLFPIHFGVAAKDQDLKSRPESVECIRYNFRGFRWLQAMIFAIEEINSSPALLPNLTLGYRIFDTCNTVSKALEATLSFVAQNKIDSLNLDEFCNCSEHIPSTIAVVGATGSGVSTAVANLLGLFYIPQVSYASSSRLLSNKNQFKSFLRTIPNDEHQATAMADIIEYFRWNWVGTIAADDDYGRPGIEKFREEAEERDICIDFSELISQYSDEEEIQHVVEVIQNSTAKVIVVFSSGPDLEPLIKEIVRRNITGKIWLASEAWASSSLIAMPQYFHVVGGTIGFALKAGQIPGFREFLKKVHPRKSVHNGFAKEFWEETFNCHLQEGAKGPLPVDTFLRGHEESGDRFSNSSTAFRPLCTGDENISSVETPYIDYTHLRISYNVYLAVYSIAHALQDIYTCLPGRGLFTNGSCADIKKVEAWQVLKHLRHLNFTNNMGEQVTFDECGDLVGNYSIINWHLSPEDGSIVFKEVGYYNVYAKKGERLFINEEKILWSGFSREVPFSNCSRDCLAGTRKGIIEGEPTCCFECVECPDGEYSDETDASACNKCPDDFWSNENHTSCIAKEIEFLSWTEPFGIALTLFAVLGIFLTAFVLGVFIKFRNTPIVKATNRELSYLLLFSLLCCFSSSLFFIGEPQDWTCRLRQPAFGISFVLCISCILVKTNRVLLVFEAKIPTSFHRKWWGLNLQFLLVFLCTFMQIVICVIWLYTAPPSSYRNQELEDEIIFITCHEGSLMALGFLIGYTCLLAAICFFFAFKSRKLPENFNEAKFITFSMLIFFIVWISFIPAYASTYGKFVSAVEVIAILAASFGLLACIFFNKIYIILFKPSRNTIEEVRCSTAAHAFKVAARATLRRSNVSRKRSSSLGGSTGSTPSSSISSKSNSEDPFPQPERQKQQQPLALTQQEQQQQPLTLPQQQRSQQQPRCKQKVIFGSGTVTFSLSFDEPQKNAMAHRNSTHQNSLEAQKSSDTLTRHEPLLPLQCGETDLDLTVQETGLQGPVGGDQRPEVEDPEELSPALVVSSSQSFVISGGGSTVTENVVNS
# assay summary: Intracellular free calcium assay: inhibition of calcium transients stimulated by extracellular calcium (antagonism at PCaR)
# applied conditions: CCL39 fibroblasts stably transfected with human PCaR; Fluo-3 AM; stimulated with calcium (2.5 mM final)
# pIC50 is unitless: minus log10 of the molar concentration; print number only

[[record]]
smi = "C#CCOc1ccc2nc(-c3nc4ccc(C(F)(F)F)cc4[nH]3)nc(-c3ccc(C(C)C)cc3)c2c1"
measurement_label = "pIC50"
observed_result = 9.02


Now examine the next entry.
q: Can you share its pIC50? I mean this compound: `C#CCOc1ccc2nc(-c3nc4ccccc4n3C)nc(-c3ccc(C(C)C)cc3)c2c1`
a: 8.82

---

# assay system: human PCaR (parathyroid Calcium receptor) (Homo sapiens)
# assay summary: Intracellular free calcium assay: inhibition of calcium transients stimulated by extracellular calcium (antagonism at PCaR)
# applied conditions: CCL39 fibroblasts stably transfected with human PCaR; Fluo-3 AM; stimulated with calcium (2.5 mM final)
# Lookup of reported pIC50 keyed by entry
In textbook form, pIC50 equals minus log to base ten of the concentration in mol/L.

q: Given `C#CCOc1ccc2nc(-c3nc4ccc(C(=O)OCC)cc4[nH]3)nc(-c3ccc(C(C)C)cc3)c2c1` , state its recorded pIC50.
a: 9.13

q: Now the same for `C#CCOc1ccc2nc(-c3nc4ccc(C(=O)c5ccccc5)cc4[nH]3)nc(-c3ccc(C(C)C)cc3)c2c1`
a: 9.17

q: Then this molecule: `C#CCOc1ccc2nc(-c3nc4cc(C(C)=O)ccc4n3C)nc(-c3ccc(C(C)C)cc3)c2c1`
a: 9.00

---

# assay system: human PCaR (parathyroid Calcium receptor) (Homo sapiens)
# assay summary: Intracellular free calcium assay: inhibition of calcium transients stimulated by extracellular calcium (antagonism at PCaR)
# applied conditions: CCL39 fibroblasts stably transfected with human PCaR; Fluo-3 AM; stimulated with calcium (2.5 mM final)
Reported values of pIC50 for individual entries
Expect pIC50 as a plain number equal to -log10 of the molar concentration.

[[record]]
smi = "C#CCOc1ccc2nc(-c3nc4ccc(Br)cc4[nH]3)nc(-c3ccc(C(C)C)cc3)c2c1"
observed_result = 9.06

[[record]]
smi = "C#CCOc1ccc2nc(-c3nc4ccc(C#N)cc4[nH]3)nc(-c3ccc(C(C)C)cc3)c2c1"
observed_result = 9.03

[[record]]
smi = "C#CCOc1ccc2nc(-c3nc4cccc(C(C)=O)c4[nH]3)nc(-c3ccc(C(C)C)cc3)c2c1"
observed_result = 9.23

[[record]]
smi = "C#CCOc1ccc2nc(-c3nc4cc(F)ccc4n3C)nc(-c3ccc(C(C)C)cc3)c2c1"
observed_result = 8.96

[[record]]
smi = "C#CCOc1ccc2nc(-c3nc4cc(OC)ccc4n3C)nc(-c3ccc(C(C)C)cc3)c2c1"
observed_result = 9.15


q: Which pIC50 reading was recorded for the molecule `C#CCOc1ccc2nc(-c3nc4cc(C(=O)CCC)c(C)cc4n3C)nc(-c3ccc(C(C)C)cc3)c2c1` ?
a: 9.59

q: `C#CCOc1ccc2nc(-c3nc4cc(F)c(F)cc4[nH]3)nc(-c3ccc(C(C)C)cc3)c2c1` , same question.
a: 9.36

q: Next up: `C#CCOc1ccc2nc(-c3nc4cc(C(=O)OCC)ccc4n3C)nc(-c3ccc(C(C)C)cc3)c2c1`
a: 9.40

q: Now give it for `C#CCOc1ccc2nc(-c3nc4ccc(Cl)cc4[nH]3)nc(-c3ccc(C(C)C)cc3)c2c1` too.
a: 9.28

q: Queued: `C#CCOc1ccc2nc(-c3nc4cc(C(F)(F)F)ccc4n3C)nc(-c3ccc(C(C)C)cc3)c2c1`
a: 9.20

Cited source: patent US20090074791A1
